Tested on: SF126
Assay: Cell vitality assay (ATP assay, CellTiter-Glo)
Format: cell-based
Conditions: Homo sapiens, SF-126; SF126, 72 h; Table IIa; read-out: IC50 ATP-Assay after 72 h SF126
REPORTED_METRIC: IC50

Would you please look over these solved cases?
>>> endpoint_result("COc1cc2c(Oc3ccc(NS(=O)(=O)c4cccc(C)c4)cc3F)ccnc2cc1OCCCN1CCCC(C)C1 (centres unmarked)")
"≤ 12.5 µM"
>>> endpoint_result("COC(=O)c1sccc1S(=O)(=O)Nc1ccc(Oc2ccnc3cc(OCCCN4CCC(C)CC4)c(OC)cc23)c(F)c1")
"≤ 12.5 µM"
>>> endpoint_result("COc1cc2c(Oc3ccc(NS(=O)(=O)c4ccc(F)c(C#N)c4)cc3F)ccnc2cc1OCCCN1CCCC(C)C1 (centres unmarked)")
"12.5 to 50 µM"
>>> endpoint_result("COc1cc2c(Oc3c(Cl)cc(NS(=O)(=O)c4ccccc4C(F)(F)F)cc3Cl)ccnc2cc1OCCCN1CCC(C)CC1")
"≤ 12.5 µM"
>>> endpoint_result("COc1cc2c(Oc3c(Cl)cc(NS(=O)(=O)c4c(F)cccc4F)cc3Cl)ccnc2cc1OCCCN1CCN(C)CC1")
"12.5 to 50 µM"

Could you now look at the following compound, please?
In plain terms, COc1cc2c(Oc3ccc(NS(=O)(=O)c4c(F)cccc4F)cc3F)ccnc2cc1OCCCN(C)C has a documented IC50 of ≤ 12.5 µM

* * *

In this section we review reported melting point values for a set of compounds.

>>> endpoint_result("COc1cc2c(Oc3cccc(NS(=O)(=O)c4cc(Cl)sc4Cl)c3)ccnc2cc1OCCCN1CCN(C)CC1")
"177 to 178 °C"
>>> endpoint_result("COc1cc2c(Oc3ccc(NS(=O)(=O)c4ccn(C)n4)cc3F)ccnc2cc1OCCN1CCOCC1")
"213 to 214 °C"
>>> endpoint_result("COc1cc2c(Oc3ccc(NS(=O)(=O)c4cc(Cl)ccc4Cl)cc3F)ccnc2cc1OCCCN(C)C")
"150 to 152 °C"
>>> endpoint_result("COc1cc2c(Oc3ccc(Cl)c(NS(=O)(=O)c4cc(F)ccc4F)c3)ccnc2cc1OCCCN1CCC(C)CC1")
"206 to 208 °C"
>>> endpoint_result("COc1cc2c(Oc3ccc(NS(=O)(=O)c4ccccc4[N+](=O)[O-])cc3F)ccnc2cc1OCCCN1CCCCC1")
"113 to 116 °C"
>>> endpoint_result("COc1cc2c(Oc3ccc(NS(=O)(=O)c4cc(Cl)ccc4Cl)cc3F)ccnc2cc1OCCCN1CCCCC1C (stereo not drawn)")
"128 to 130 °C"

melting point recorded for this compound, COc1cc2c(Oc3ccc(NS(=O)(=O)c4ccn(C)n4)cc3F)ccnc2cc1OCCCN1CCCCC1C (stereo not drawn) , is 175 to 176 °C

Item: COc1ccc2nccc(Oc3ccc(NS(=O)(=O)C4CC4)cc3F)c2c1 | melting point: 194 to 196 °C

* * *

Below: a set of entries, each annotated with reported melting point.

Below, each entry is followed by its recorded melting point result.
>>> endpoint_result("COc1cc2c(Oc3cc(NS(=O)(=O)c4cc(Cl)ccc4Cl)ccc3F)ccnc2cc1OCCCN1CCC(C)CC1")
"127 to 130 °C"
>>> endpoint_result("COc1cc2c(Oc3ccc(NS(=O)(=O)c4csc5ccccc45)cc3F)ccnc2cc1OCCCN1CCCC(C)C1 (stereo not shown)")
"126 to 128 °C"

GET /value?item= COc1ccc2nccc(Oc3ccc(NS(=O)(=O)c4ccc5ccccc5c4)cc3F)c2c1 &field=melting point returns 220 to 222 °C

Reported melting point ( COc1cc2c(Oc3ccc(NS(=O)(=O)c4c(C)nn(C)c4C)cc3F)ccnc2cc1OCCCN1CCCCC1 ) = 96 to 98 °C

Value of measured melting point for the entry COc1cc2c(Oc3ccc(NS(=O)(=O)c4c(Cl)cccc4Cl)cc3F)ccnc2cc1OCCCN1CCCC(C)C1 (stereo not shown) : 119 to 121 °C

Reported melting point ( COc1cc2c(Oc3ccc(NS(=O)(=O)c4ccccc4F)cc3Cl)ccnc2cc1OCCCN1CCN(C)CC1 ) = 170 to 171 °C

# melting point of COC(=O)c1sccc1S(=O)(=O)Nc1ccc(Oc2ccnc3cc(OCCCN4CCOCC4)c(OC)cc23)c(F)c1 = 167 to 168 °C

* * *

Overview of reported melting point across a group of compounds:

>>> endpoint_result("COc1cc2c(Oc3cccc(NS(=O)(=O)c4ccn(C)n4)c3)ccnc2cc1OCCCN1CCN(C)CC1")
"87 to 89 °C"
>>> endpoint_result("COc1cc2c(Oc3ccc(NS(=O)(=O)c4cccc(C)c4)cc3F)ccnc2cc1OCCCN1CCCC(C)C1 (stereo not drawn)")
"168 to 170 °C"
>>> endpoint_result("COc1cc2c(Oc3cccc(NS(=O)(=O)c4c(F)cccc4F)c3)ccnc2cc1OCCCN1CCN(C)CC1")
"171 to 172 °C"
>>> endpoint_result("COC(=O)c1sccc1S(=O)(=O)Nc1ccc(Oc2ccnc3cc(OCCCN4CCCCC4)c(OC)cc23)c(F)c1")
"138 to 139 °C"
>>> endpoint_result("COc1cc2c(Oc3ccc(NS(=O)(=O)c4cnc(C)[nH]4)cc3F)ccnc2cc1OCCCN1CCC(C)CC1")
"225 to 226 °C"

The compound listed as COc1cc2c(Oc3ccc(NS(=O)(=O)C4CC4)cc3F)ccnc2cc1OCCCN1CCCC(C)C1 (stereo not drawn) has a reported melting point of 158 to 160 °C

Reported melting point ( COc1cc2c(Oc3ccc(NS(=O)(=O)c4c(C)nn(C)c4C)cc3F)ccnc2cc1OCCCN1CCOCC1 ) = 163 to 164 °C

Recorded melting point (compound COc1cc2c(Oc3ccc(NS(=O)(=O)c4ccn(C)n4)cc3F)ccnc2cc1OCCCN1CCN(C)CC1 ): 157 to 159 °C

* * *

Target: wild type AXL (wtAXL) receptor tyrosine kinase (Homo sapiens)
Construct: WtAXL cDNA was cloned into vector pLXSN(ESK) and transfected into Phoenix E packaging cells
Sequence (P30530 26-894): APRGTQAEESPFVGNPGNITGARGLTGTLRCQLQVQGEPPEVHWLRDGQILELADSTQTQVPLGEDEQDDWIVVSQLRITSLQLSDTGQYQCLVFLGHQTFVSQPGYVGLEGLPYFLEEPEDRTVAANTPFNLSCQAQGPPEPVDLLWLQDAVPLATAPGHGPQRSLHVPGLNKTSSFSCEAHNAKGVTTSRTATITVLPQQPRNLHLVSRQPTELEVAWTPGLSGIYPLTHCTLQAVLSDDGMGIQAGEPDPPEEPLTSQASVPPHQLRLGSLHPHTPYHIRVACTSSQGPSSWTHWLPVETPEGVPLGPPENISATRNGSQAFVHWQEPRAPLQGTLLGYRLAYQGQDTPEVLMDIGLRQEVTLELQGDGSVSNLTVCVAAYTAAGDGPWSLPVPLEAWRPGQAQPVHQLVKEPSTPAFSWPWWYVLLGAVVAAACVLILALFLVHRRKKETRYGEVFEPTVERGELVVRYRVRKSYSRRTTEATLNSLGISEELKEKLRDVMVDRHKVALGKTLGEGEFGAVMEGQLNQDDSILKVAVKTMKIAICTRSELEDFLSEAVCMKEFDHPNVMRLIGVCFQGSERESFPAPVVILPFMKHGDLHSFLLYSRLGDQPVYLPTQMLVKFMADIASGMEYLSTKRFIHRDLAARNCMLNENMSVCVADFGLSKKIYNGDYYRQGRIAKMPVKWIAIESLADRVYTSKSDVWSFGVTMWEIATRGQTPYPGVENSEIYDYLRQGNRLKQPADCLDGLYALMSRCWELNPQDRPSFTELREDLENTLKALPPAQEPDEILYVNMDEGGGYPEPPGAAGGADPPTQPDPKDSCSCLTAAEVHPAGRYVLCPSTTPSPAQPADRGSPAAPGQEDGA
Assay: NIH-3T3-AXL cellular kinase assay (pY-AXL-ELISA)
Settings: NIH-3T3-AXL (clone 22) cells, serum depleted, compounds 1 h; Table Ia
pIC50: −log10 of the molar value.
In this section, each of the compounds is paired with its reported pIC50.

These solved cases illustrate the format of a correct answer.
>>> endpoint_result("COc1cc2c(Oc3ccc(NS(=O)(=O)c4c(Cl)cccc4Cl)cc3Cl)ccnc2cc1OCCCN1CCN(C)CC1")
"> 6.30"
>>> endpoint_result("COc1cc2c(Oc3ccc(NS(=O)(=O)c4cccc(Cl)c4F)cc3F)ccnc2cc1OCCCN1CCCC(C)C1 (stereo not shown)")
"> 6.30"
>>> endpoint_result("COc1cc2c(Oc3ccc(NS(=O)(=O)c4cccc(OC(F)(F)F)c4)cc3F)ccnc2cc1OCCCN1CCCC(C)C1 (stereo not shown)")
"> 6.30"
>>> endpoint_result("COc1cc2c(Oc3cccc(NS(=O)(=O)c4csc5ccccc45)c3)ccnc2cc1OCCCN1CCN(C)CC1")
"5.52 to 6.30"

The recorded pIC50 with wild type AXL (wtAXL) receptor tyrosine kinase (Homo sapiens) for COc1cc2c(Oc3ccc(NS(=O)(=O)c4c(Cl)cccc4Cl)cc3C)ccnc2cc1OCCCN1CCC(C)CC1 was 5.52 to 6.30

Entry COc1cc2c(Oc3ccc(NS(=O)(=O)c4c(F)cccc4F)cc3C)ccnc2cc1OCCCN1CCC(C)CC1 ; assay system wild type AXL (wtAXL) receptor tyrosine kinase (Homo sapiens); pIC50 recorded at 5.52 to 6.30

Param item: COc1cc2c(Oc3ccc(NS(=O)(=O)c4ccsc4)cc3F)ccnc2cc1OCCCN1CCCC(C)C1 (stereo not shown) ; param system: wild type AXL (wtAXL) receptor tyrosine kinase (Homo sapiens); output pIC50: > 6.30

* * *

Tested on: U87MG
Test: Matrigel outgrowth assay/branching assay
Type: cell-based
Conditions: IC100, U87MG; Table Vb
REPORTED_METRIC: Total branching inhibition in Matrigel U87MG

>>> endpoint_result("COc1cc2c(Oc3ccc(NS(=O)(=O)c4cc(F)ccc4F)cc3F)ccnc2cc1OCCCN1CCCCC1")
"+ (IC100>12.5 μM)"
>>> endpoint_result("COc1cc2c(Oc3ccc(NS(=O)(=O)c4ccccc4C(F)(F)F)cc3F)ccnc2cc1OCCCN1CCN(C)CC1")
"+ (IC100>12.5 μM)"
>>> endpoint_result("COc1cc2c(Oc3ccc(NS(=O)(=O)c4cc(F)ccc4F)cc3F)ccnc2cc1OCCCN1CCN(C)CC1")
"+ (IC100>12.5 μM)"

* * *

System: MDA-MB231
Test: Cell vitality assay (ATP assay, CellTiter-Glo)
Type: cell-based
Conditions: Homo sapiens, MDA-MB-231; MDA-MB231, 72 h; Table IIa; read-out: IC50 ATP-Assay after 72 h MDA-MB231
pIC50: −log10 of the molar value.
Catalogue of compounds with associated pIC50

>>> endpoint_result("COc1cc2c(Oc3ccc(NS(=O)(=O)c4cc(F)ccc4F)cc3F)ccnc2cc1OCCCN1CCCCC1")
"4.30 to 4.90"
>>> endpoint_result("COc1cc2c(Oc3ccc(NS(=O)(=O)c4c(F)cccc4F)cc3F)ccnc2cc1OCCCN1CCOCC1")
"4.30 to 4.90"

Now for a further compound.
Notebook: COc1cc2c(Oc3ccc(NS(=O)(=O)c4ccccc4C(F)(F)F)cc3F)ccnc2cc1OCC(=O)N(C)C , pIC50 read as 4.30 to 4.90
